Origin of values: patent US20230348468A1

target: human TLR7 (Homo sapiens, UniProt Q9NYK1); experiment: Human TLR7 agonist activity (reporter) assay; conditions: HEK-Blue TLR7 cells, SEAP reporter, 18 h treatment; average where assay performed multiple times; read-out: hTLR7 Agonism EC50
Sequence (Q9NYK1 27-1049): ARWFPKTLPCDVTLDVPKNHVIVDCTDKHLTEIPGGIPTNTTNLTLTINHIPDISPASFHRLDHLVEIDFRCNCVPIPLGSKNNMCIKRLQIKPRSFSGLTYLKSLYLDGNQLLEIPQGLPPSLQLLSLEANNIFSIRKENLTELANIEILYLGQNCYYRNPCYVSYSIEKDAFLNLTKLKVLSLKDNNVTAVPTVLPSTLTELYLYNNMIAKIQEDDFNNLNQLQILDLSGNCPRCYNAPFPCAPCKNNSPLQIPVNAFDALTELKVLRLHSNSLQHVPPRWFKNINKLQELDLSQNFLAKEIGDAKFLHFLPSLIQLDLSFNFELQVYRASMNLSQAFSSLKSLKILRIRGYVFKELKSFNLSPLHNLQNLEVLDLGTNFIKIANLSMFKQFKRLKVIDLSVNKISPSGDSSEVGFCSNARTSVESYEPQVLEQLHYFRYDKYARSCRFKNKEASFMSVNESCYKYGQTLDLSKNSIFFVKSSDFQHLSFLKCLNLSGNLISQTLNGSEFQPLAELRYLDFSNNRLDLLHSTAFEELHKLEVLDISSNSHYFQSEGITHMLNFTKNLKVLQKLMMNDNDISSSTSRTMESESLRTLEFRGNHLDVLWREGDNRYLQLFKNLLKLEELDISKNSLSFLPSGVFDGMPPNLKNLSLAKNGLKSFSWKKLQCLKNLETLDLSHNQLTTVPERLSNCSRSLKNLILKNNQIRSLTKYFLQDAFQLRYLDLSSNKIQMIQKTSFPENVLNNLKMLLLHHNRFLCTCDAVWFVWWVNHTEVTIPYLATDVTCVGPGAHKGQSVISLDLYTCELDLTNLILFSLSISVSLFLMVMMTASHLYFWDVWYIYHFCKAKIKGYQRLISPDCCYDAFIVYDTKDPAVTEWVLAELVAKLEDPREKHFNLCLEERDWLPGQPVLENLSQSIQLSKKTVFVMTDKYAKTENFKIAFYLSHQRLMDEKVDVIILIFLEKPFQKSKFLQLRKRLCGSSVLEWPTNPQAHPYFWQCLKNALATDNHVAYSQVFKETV
readout_label: EC50 (nM)
Answers are plain numbers, in nM.

Example molecules with recorded EC50:
CCCCNc1nc(N)nc2cnn(Cc3ccc(C(C)(O)C(F)(F)F)cc3OC)c12 (stereo not shown) [Compound 115]	146
COc1cc(C(C)(C)N)ccc1Cn1ncc2nc(N)nc(NCc3cc(C)on3)c21 [Compound 103]	202
CCCCNc1nc(N)nc2cnn(Cc3ccc(C(C)(C)N)cc3OC)c12 [Compound 101]	76.6
CCC[C@@H](CCO)Nc1nc(N)nc2cnn(Cc3cnc(C(C)(C)N)cc3OC)c12 [Compound 120]	48.3
CCCCNc1nc(N)nc2cnn(Cc3ccc(C(C)(C)O)cc3OC)c12 [Compound 110]	71.1

Record EC50 for all entries; do not skip any.
1. CCC[C@@H](CCO)Nc1nc(N)nc2cnn(Cc3cc(C(C)(C)N)ccc3OC)c12 [Compound 104]
2. CCCCNc1nc(N)nc2cnn(Cc3ccc(C(O)(CC)CC)cc3OC)c12 [Compound 111]
3. CCCCNc1nc(N)nc2cnn(Cc3ccc(C(C)(O)CCC)cc3OC)c12 (stereo not shown) [Compound 113]
4. CCCCNc1nc(N)nc2cnn(Cc3ccc(C4(O)CCC4)cc3OC)c12 [Compound 117]
5. CCCCNc1nc(N)nc2cnn(Cc3ccc(C(C)(O)CC)cc3OC)c12 (stereo not shown) [Compound 112]
6. CC[C@@H](CCO)Nc1nc(N)nc2cnn(Cc3ccc(C(C)(C)N)cc3OC)c12 [Compound 106]
7. CCCCNc1nc(N)nc2cnn(Cc3ccc(C4(O)COC4)cc3OC)c12 [Compound 114]

output:
[34.5, 45.9, 256, 25.9, 95.9, 211, 410]
